As shown below, each of these compounds has a reported PRE Application ALOMY, percentage damage (five point scale) value.
System: Alopecurus myosuroides (ALOMY)
assay: Herbicidal glasshouse test, pre-emergence, ALOMY
Type: in vivo
protocol.conditions: applied at 1000 g/h, evaluated after 13 days

{"compound": "Cc1cccc(Cn2c(=O)c(C(=O)Nc3nnnn3C)nn(C)c2=O)c1 [Compound 1.052]", "result": "5 (5=80-100%)"}
{"compound": "C=CCn1c(=O)c(C(=O)Nc2nnnn2C)nn(C)c1=O [Compound 1.004]", "result": "3 (3=40-59%)"}
{"compound": "CCn1nnnc1NC(=O)c1cn(C)c(=O)n(-c2cccc(F)c2)c1=O [Compound 4.003]", "result": "2 (2=20-39%)"}
{"compound": "Cn1nnnc1NC(=O)c1nn(C)c(=O)n(Cc2cc(F)ccc2F)c1=O [Compound 1.061]", "result": "5 (5=80-100%)"}
{"compound": "Cc1ccccc1-n1c(=O)c(C(=O)Nc2nnnn2C)nn(C)c1=O [Compound 1.018]", "result": "5 (5=80-100%)"}

Please tell me the measured PRE Application ALOMY, percentage damage (five point scale) for Cc1cc(Cn2c(=O)c(C(=O)Nc3nnnn3C)nn(C)c2=O)cc(C)c1F [Compound 1.078] ; system: Alopecurus myosuroides (ALOMY). 2 (2=20-39%)

Give PRE Application ALOMY, percentage damage (five point scale) only, for CC(C)Cn1c(=O)c(C(=O)Nc2nnnn2C)nn(C)c1=O [Compound 1.005] , using Alopecurus myosuroides (ALOMY) data. 5 (5=80-100%)

Return reported PRE Application ALOMY, percentage damage (five point scale) for target or system Alopecurus myosuroides (ALOMY), item Cn1nnnc1NC(=O)c1nn(C)c(=O)n(CC2CC2)c1=O [Compound 1.093] . 5 (5=80-100%)

GET PRE Application ALOMY, percentage damage (five point scale) where system = Alopecurus myosuroides (ALOMY) and item = Cn1nnnc1NC(=O)c1nn(C)c(=O)n(-c2cccc(F)c2F)c1=O [Compound 1.003] 5 (5=80-100%)

###

Here the recorded POST Application SETFA, percentage damage (five point scale) is given for each entry.
System: Setaria faberi (SETFA)
assay: Herbicidal glasshouse test, post-emergence, SETFA
Assay type: in vivo
protocol.conditions: applied at 1000 g/h, evaluated after 13 days

Worked examples follow.
{"compound.structure": "Cn1nnnc1NC(=O)c1nn(C)c(=O)n(Cc2cccc(C(F)F)c2)c1=O", "result": "2 (2=20-39%)"}
{"compound.structure": "Cn1nnnc1NC(=O)c1nn(C)c(=O)n(Cc2cccc(Cl)c2)c1=O", "result": "2 (2=20-39%)"}
{"compound.structure": "CCCCn1c(=O)c(C(=O)Nc2nncn2C)nn(C)c1=O", "result": "2 (2=20-39%)"}
{"compound.structure": "Cn1nnnc1NC(=O)c1nn(C)c(=O)n(Cc2cccc(F)c2C(F)(F)F)c1=O", "result": "5 (5=80-100%)"}
{"compound.structure": "Cn1ncnc1NC(=O)c1cn(C)c(=O)n(-c2ccccc2)c1=O", "result": "1 (1=0-19%)"}
{"compound.structure": "Cn1nnnc1NC(=O)c1nn(C)c(=O)n(-c2cc(F)c(F)c(F)c2)c1=O", "result": "5 (5=80-100%)"}
{"compound.structure": "Cc1ccccc1-n1c(=O)c(C(=O)Nc2nnnn2C)nn(C)c1=O", "result": "5 (5=80-100%)"}
{"compound.structure": "Cc1cc(C)cc(-n2c(=O)c(C(=O)Nc3nnnn3C)nn(C)c2=O)c1", "result": "5 (5=80-100%)"}
{"compound.structure": "COc1ccc(F)c(Cn2c(=O)c(C(=O)Nc3nnnn3C)nn(C)c2=O)c1Cl", "result": "2 (2=20-39%)"}
{"compound.structure": "Cn1nnnc1NC(=O)c1nn(C)c(=O)n(Cc2c(F)cccc2F)c1=O", "result": "5 (5=80-100%)"}

Please list POST Application SETFA, percentage damage (five point scale) recorded for the compound `Cn1ncnc1NC(=O)c1nn(C)c(=O)n(-c2cccc(F)c2F)c1=O` 5 (5=80-100%)

Consider the compound `Cn1nnnc1NC(=O)c1nn(C)c(=O)n(-c2ccccc2F)c1=O` . State its measured POST Application SETFA, percentage damage (five point scale). 5 (5=80-100%)

Quote POST Application SETFA, percentage damage (five point scale) reported for `Cn1nnnc1NC(=O)c1nn(C)c(=O)n(Cc2cccc(F)c2F)c1=O` please. 4 (4=60-79%)
